B1: NEUROD6 (parent)
chain: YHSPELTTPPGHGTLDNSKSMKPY

variants of: B1; assay: protein stability index of a GFP-peptide fusion (GPS, HEK-293T) (PSI 1-6); higher = more stable; conditions: c terminus: a fixed tail appended;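 further: lentivirally expressed fusions sorted by FACS into six bins by GFP to DsRed ratio, PSI derived from sequencing read proportions per bin multiplied by bin number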
Hi, to clarify the labels: class 1 covers protein stability index from 2 upward, class 0 covers anything below 2.

## Task Test whether the variant `T8D` records protein stability index of 2 or higher.
## Result class 1

## Task Can you handle `P23A` next?
## Result class 1

## Task Another variant to check: `S20G`
## Result class 1

## Task Same again, this time with `D16Q`
## Result class 1

## Task Follow-up item: `L6R`
## Result class 1

## Task Next record, please: `S18G`
## Result class 1

## Task And then `Y24E` , what is it?
## Result class 1

## Task `G13R` , same question.
## Result class 0

## Task Same again, this time with `P9I`
## Result class 1

## Task Can you handle `T8W` next?
## Result class 0

## Task Proceed to `Y1R`
## Result class 1

## Task What do you get for `S3H` ?
## Result class 1

## Task Same for `K22S`
## Result class 1

## Task Then `K19G` ?
## Result class 1

## Task Can you check `G13W` next?
## Result class 0

## Task Next variant up: `H12W`
## Result class 0

Where these numbers come from: the supplement of paper PMC10567573
